- target_or_system: T1, human coagulation Factor IX (human, UniProt P00740 47-461)
- T1 construct: also called FIX
- T1 sequence (P00740 47-461 T194A limits assumed): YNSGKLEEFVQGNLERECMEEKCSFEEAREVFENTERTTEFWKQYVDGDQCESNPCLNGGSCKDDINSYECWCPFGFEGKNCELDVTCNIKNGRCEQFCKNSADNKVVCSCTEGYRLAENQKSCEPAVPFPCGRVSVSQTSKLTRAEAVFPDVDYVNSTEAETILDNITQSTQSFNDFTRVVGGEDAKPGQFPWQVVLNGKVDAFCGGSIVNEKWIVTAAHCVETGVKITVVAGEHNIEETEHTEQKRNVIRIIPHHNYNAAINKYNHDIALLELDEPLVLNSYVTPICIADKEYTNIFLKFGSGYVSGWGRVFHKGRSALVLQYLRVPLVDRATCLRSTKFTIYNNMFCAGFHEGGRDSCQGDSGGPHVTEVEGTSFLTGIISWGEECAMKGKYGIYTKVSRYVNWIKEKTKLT
- test_summary: ITC, 37 °C, pH 7.4, antibody injected into FIX
property_name: pKd
Kindly note that pKd refers to -log10 of the concentration in mol/L and answer with the value alone.

The cases that follow already have their pKd on record.
binder	pKd
mAb01-9933 (antibody, V domains shown, Bivalent IgG) VH: EVQLVESGGGLVQPGRSLKLSCAASGFTFDDYAMHWVRQVPGKGLEWVSGISWKGDIGGYVDSVKGRFTISRDNAKNSLYLQLNSLRAEDTALYYCAKSYGSGSFYNAFDSWGQGTLVTVSS VL: DIQMTQSPSTLSASAGDEVTITCRASQSISSWLAWYQQKPGKAPKLLIYKASKLDRGVPSRFSGSGSGTEFSLTISDLQPDDFATYYCLEYSSYIRTFGQGTKVEIK	5.62
mAb01-9978 (antibody, V domains shown, Bivalent IgG) VH: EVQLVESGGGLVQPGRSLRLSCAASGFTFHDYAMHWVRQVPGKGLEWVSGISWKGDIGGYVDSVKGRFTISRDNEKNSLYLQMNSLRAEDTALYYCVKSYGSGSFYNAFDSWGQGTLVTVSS VL: DIQMTQSPSTLSASVGDRVTITCRASQSISSWLAWYQQKPGKAPKLLIYKASRLERGTPSRFSGSGSGTEFSLTISSLQPDDFATYYCLEYSSYIRTFGQGTKVEIK	5.25
mAb01-9994 (antibody, V domains shown, Bivalent IgG) VH: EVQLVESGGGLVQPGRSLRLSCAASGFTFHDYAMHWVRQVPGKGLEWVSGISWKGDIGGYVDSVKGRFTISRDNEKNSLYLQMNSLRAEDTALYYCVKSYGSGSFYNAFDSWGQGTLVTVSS VL: DIQMTQSPSTLSASVGDRVTITCRASQSISSWLAWYQQKPGKAPKFLIYKASRLDRGTPSRFSGSGSGTEFSLTISSLQPDDFATYYCLEYSSYIRTFGQGTKVEIK	5.61

The record that follows has no pKd shown yet.
Form field pKd, entry mAb01-9985 (antibody, V domains shown, Bivalent IgG) VH: EVQLVESGGGLVQPGRSLRLSCAASGFTFHDYAMHWVRQVPGKGLEWVSGISWRGDIGGYVKSVKGRFTISRDNAKNSLYLQMNSLRAEDTALYYCVKSYGSGSFYNAFDSWGQGTLVTVSS VL: DIQMTQSPSTLSASVGDRVTITCRASQSISSWLAWYQQKPGKAPKFLIYKASKLERGTPSRFSGSGSGTEFSLTISSLQPDDFATYYCLEYSSYIRTFGQGTKVEIK : 5.72

Values were extracted from patent US20260193376A1.
